Target: Protein Kinase C beta 2 (PKCβII) (Homo sapiens (Human))
Sequence (P05771 other isoform, or with tags, fused parts or gaps): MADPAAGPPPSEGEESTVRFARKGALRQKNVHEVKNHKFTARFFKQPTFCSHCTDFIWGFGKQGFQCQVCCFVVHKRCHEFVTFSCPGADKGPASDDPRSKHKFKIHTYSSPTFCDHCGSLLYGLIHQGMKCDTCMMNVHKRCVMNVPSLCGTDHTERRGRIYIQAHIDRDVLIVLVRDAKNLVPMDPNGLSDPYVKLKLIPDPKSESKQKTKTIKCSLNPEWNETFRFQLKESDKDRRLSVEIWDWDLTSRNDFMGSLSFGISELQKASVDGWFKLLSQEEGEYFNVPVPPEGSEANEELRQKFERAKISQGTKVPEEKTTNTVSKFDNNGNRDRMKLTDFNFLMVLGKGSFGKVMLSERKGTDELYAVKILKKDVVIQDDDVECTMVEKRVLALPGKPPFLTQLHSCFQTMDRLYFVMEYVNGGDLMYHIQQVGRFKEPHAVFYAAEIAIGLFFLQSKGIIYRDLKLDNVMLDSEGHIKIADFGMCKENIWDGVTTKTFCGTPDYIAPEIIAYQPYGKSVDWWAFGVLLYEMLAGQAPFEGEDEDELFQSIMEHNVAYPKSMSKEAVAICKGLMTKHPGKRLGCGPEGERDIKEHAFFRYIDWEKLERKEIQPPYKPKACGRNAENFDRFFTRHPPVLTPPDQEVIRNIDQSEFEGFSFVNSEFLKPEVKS
result_type: Ki (nM)
Give the value in nM but do not write nM after it.

I'm curious: which Ki was measured for `CCOc1ncc(F)c(Nc2n[nH]c3c2CN(C(=O)N2C[C@@H](C)N(C)C[C@@H]2C)C3(C)C)n1` tested on Protein Kinase C beta 2 (PKCβII) (Homo sapiens (Human))?
1.12
